Test system: Escherichia coli TOP10;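 note: peptides expressed intracellularly from a pBAD plasmid library in pooled LB shake-flask culture, induced with 0.3% L-arabinose, DNA abundance read by NGS, three biological replicates, DESeq2 with apeglm shrinkage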
Experiment: shrunken log2 fold change of peptide-encoding DNA abundance (4.5 h post-induction vs induction); higher = less antimicrobial activity (less host growth inhibition)
Conditions: time post-induction: 4.5 h; library: site-saturation at positions 5, 18, 19, 20
metric.name: shrunken log2 fold change
Please give the numeric answer without any surrounding text.

Some entries whose results are on file:
>>> df
    macromolecule_sequence  measured_value
0  RRIRKRPPRLPRPRPRPNDNPRP          -0.076
1  RRIRWRPPRLPRPRPRPCGYPRP            0.14
2  RRIRCRPPRLPRPRPRPKCYPRP          -0.353
3  RRIRARPPRLPRPRPRPIFKPRP         -0.0373
4  RRIRDRPPRLPRPRPRPFTRPRP          -0.242
5  RRIRSRPPRLPRPRPRPQNYPRP          -0.322
6  RRIRLRPPRLPRPRPRPKSPPRP          0.0414
7  RRIRGRPPRLPRPRPRPNDLPRP           0.338
8  RRIRWRPPRLPRPRPRPANIPRP          -0.884
9  RRIRFRPPRLPRPRPRPLIIPRP          -0.575

Input: Read off the recorded shrunken log2 fold change for RRIRCRPPRLPRPRPRPRSWPRP
Output: 0.417

Input: Read off the recorded shrunken log2 fold change for RRIRFRPPRLPRPRPRPSLKPRP
Output: -0.196

Input: Read off the recorded shrunken log2 fold change for RRIRIRPPRLPRPRPRPTTHPRP
Output: -0.441

Input: Read off the recorded shrunken log2 fold change for RRIRMRPPRLPRPRPRPPYEPRP
Output: 0.0457

Input: Read off the recorded shrunken log2 fold change for RRIRMRPPRLPRPRPRPQLPPRP
Output: -0.105

FYI, the data here is from the supplement of paper PMC9112550.
